Values from ChEMBL document CHEMBL1201862

A collection of compounds and their measured EC50
target: Streptokinase A (Streptococcus pyogenes serotype M1, UniProt P10520); assay: S. pyogenes streptokinase expression inhibitors, potency, dose response, plasminogen activation absorbance, OD405 (AID 1914); format: functional, Streptococcus pyogenes M1 GAS;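 note: secreted streptokinase activity via plasminogen activation per viability signal from cell pellet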
Activity calls are given as the source filed them.
Experimental Readout: EC50

> print(dat)
                                    compound    experimental.result
 1  CCCCCCCCCc1nc2sc3c(c2c(=O)n1NC(=O)c1ccc([N+](=O)[O-])cc1)CC(C)(C)OC3       2.17 µM (active)
 2            COc1ccc2nc(N3C(=O)CNC3=S)sc2c1  > 150 µM (not active)
 3           COCCCNC(=S)NNC(=S)Nc1cccc(Cl)c1  > 150 µM (not active)
 4  CC1(C)CC(=O)C2=C(C1)c1c(ccc3ccccc13)NC2c1cc([N+](=O)[O-])cc([N+](=O)[O-])c1O (configuration not stated)  > 150 µM (not active)
 5  C/C(=N\NC(=O)c1cc(Br)ccc1O)c1cccc(NC(=O)c2ccccc2F)c1  > 150 µM (not active)
 6  Cc1ccc(CN2CC(C(=O)Nc3nnc(SCc4c(Cl)cccc4Cl)s3)CC2=O)cc1 (configuration not stated)       5.57 µM (active)
 7  Cc1[nH]c2ccccc2c1C(c1ccccn1)c1c(C)[nH]c2ccccc12  > 150 µM (not active)
 8  CCOC(=O)c1ccc(NC(=O)c2sc3nc4n(c(=O)c3c2C)CCC4)cc1  > 150 µM (not active)
 9              Cc1ccc(Nc2nc3ccccc3[nH]2)nc1  > 150 µM (not active)
10  COc1cc(OC)cc(C(=O)Nc2nnc(NC(=S)Nc3ccccc3)s2)c1  > 150 µM (not active)
11  C=C(C)C1Cc2c(C)nn(-c3cccc4ccccc34)c2C1 (configuration not stated)       16.8 µM (active)
12      CCc1nc2c3cnn(-c4cc(Cl)ccc4C)c3ncn2n1  > 150 µM (not active)
13  Cc1csc(NC(=O)c2c(O)c3c(n(CC(C)C)c2=O)CCCC3)n1  > 150 µM (not active)
14  Cc1cc(NC(=O)c2sccc2C)n(-c2nc3ccccc3[nH]2)n1  > 150 µM (not active)
15  Cc1cccc(C)c1OC1(c2ccccc2)OC(=O)c2ccccc21 (configuration not stated)       12.2 µM (active)
16  CCc1ccc(S(=O)(=O)/N=C2\C=C(Nc3ccc(C(=O)O)cc3)C(=O)c3ccccc32)cc1  > 150 µM (not active)
17  COc1ccc(NP(=O)(Oc2ccc(Cl)cc2)Oc2ccc(Cl)cc2)cc1OC       21.1 µM (active)

----------
test: inhibitors of intracellular T. cruzi replication, confirmation, NIH3T3 host cells, beta-gal luminescence (AID 2044); assay type: functional, cell-based;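 note: intracellular parasites grown in NIH/3T3 mouse fibroblasts as host cells; luminescent beta-galactosidase reporter signal from transgenic T. cruzi replicating inside host cells; inhibitors lower the luminescence signal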
Activity calls are given as the source filed them.
Experimental Readout: EC50

> print(dat)
                                   compound  experimental.readout  experimental.result
1     Clc1ccccc1N1CCN(Cc2c[nH]c3ccccc23)CC1                  EC50     1430 nM (active)
2     CC(C)Nc1ccc(Nc2ccnc3cc4ccccc4cc23)cc1                  EC50      632 nM (active)
3                   Cc1ccc(NCc2ccc(C)s2)cc1                  EC50     2130 nM (active)
4  Cc1cccc(Nc2c([N+](=O)[O-])cc(C(=O)N3CC(=O)Nc4ccccc43)cc2[N+](=O)[O-])c1                  EC50      518 nM (active)
5  CC(C)C(NC(=O)C12CC3CC(CC(C3)C1)C2)C(=O)N/N=C/C1=C(N2CCOCC2)C(=C\c2cccc([N+](=O)[O-])c2)/CC1 (centres undefined)                  EC50     2160 nM (active)
6  COc1c(C)c2c(c(O)c1C/C=C(\C)CCC(=O)O)C(=O)OC2                  EC50     1640 nM (active)
7  O=C(CCNC(=O)c1ccccc1Cl)Nc1nc(-c2ccc3ccccc3c2)cs1                  EC50     2020 nM (active)
8  CN1CCN(c2ccc(Nc3ccnc4cc(Cl)ccc34)cc2)CC1                  EC50     1390 nM (active)
9  CN1CCN(NC(=O)c2ccc(S(=O)(=O)N3CCCCCC3)cc2)CC1                  EC50      247 nM (active)

----------
Measured AC50, listed per entry.
target: UniProt P33261; test: Cytochrome panel assay with activity outcomes. Panel member name: p450-cyp2c19 Compounds with AC50 equal or less than 10 uM are considered active; assay type: functional; conditions: read-out: AC50
Experimental Readout: AC50

> print(dat)
                           smiles.structure          system     experimental.result
1  COC(=O)[C@H]1[C@@H](c2ccccc2)[C@@]2(c3ccccc3)Oc3ccccc3[C@@]1(O)[C@@H]2O  UniProt P33261  3.98 µM (inconclusive)
2        CCCn1nc(Oc2nc(NCC)nc(NCC)n2)ccc1=O  UniProt P33261  31.6 µM (inconclusive)
3        CCCOc1ccc(C(=O)NNC(=S)NC(=O)CC)cc1  UniProt P33261    20 µM (inconclusive)

----------
target: Heat shock factor protein 1 (Mus musculus); experiment: HSF1 potentiators in luciferase reporter cells, confirmation, cell-based, NIH3T3, luminescence, dose retest (AID 435004); assay type: functional;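 note: stress induced by proteasome inhibitor MG132 added 30 min after compound; luciferase reporter driven by HSF1 response element in NIH3T3 cells; actives raise luminescence as potentiators of the MG132 stress response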
Active and inactive are the calls of the source.
Outcomes: YES for active, NO for inactive

> print(dat)
                                    compound  category.label
 1  Cc1cc(F)ccc1NCc1cc2c(cc1[N+](=O)[O-])OCO2              NO
 2           COc1ccc(-c2cn3cc(C)ccc3n2)cc1OC              NO
 3  O=[N+]([O-])c1c(NCCCO)cc(Sc2ccc(Cl)cc2)c2nonc12             YES
 4  CN1CCN(c2ccc(Nc3ccnc4cc(Cl)ccc34)cc2)CC1              NO
 5  NC(=O)CCN1CCN(CCOC2Cc3cc(Cl)ccc3Sc3ccccc32)CC1 (stereo unspecified)              NO
 6  Cn1cc([N+](=O)[O-])c(C(=O)Nc2ccc(-c3nc4ccccc4[nH]3)cc2)n1             YES
 7       CCOc1ncccc1C(=O)NCCc1c[nH]c2ccccc12              NO
 8     O=C(/C=C/NNC(=O)c1ccccc1)c1ccc(Br)cc1             YES
 9  CCO/C(O)=C1\C(C)=Nc2nc3ccccc3n2C1c1ccncc1 (stereo unspecified)              NO
10  COc1cccc(/C=N/Nc2ccc([N+](=O)[O-])cn2)c1O             YES
11  COc1ccc(N2C(=O)NC(=O)/C(=C/c3ccc([N+](=O)[O-])s3)C2=O)cc1             YES
12  O=C1CCCC2=C1C(c1ccc(Cl)cc1)n1c(s/c(=C\c3ccc4ccncc4c3)c1=O)=N2 (stereo unspecified)             YES
13   Cc1ccc2[nH]c(SCC(=O)NCc3ccc(F)cc3)nc2c1              NO
14  CCC1(C)N=C(N)Nc2nc3cc(C)c(C)cc3n21 (stereo unspecified)              NO
15         Cc1ccc(Nc2c(N)c(=O)oc3ccccc23)cc1              NO

----------
Biological target: Corticotropin-releasing factor receptor 2/Corticotropin-releasing factor-binding protein (Homo sapiens, UniProt P24387+Q13324)
Sequence (Q13324 whole entry): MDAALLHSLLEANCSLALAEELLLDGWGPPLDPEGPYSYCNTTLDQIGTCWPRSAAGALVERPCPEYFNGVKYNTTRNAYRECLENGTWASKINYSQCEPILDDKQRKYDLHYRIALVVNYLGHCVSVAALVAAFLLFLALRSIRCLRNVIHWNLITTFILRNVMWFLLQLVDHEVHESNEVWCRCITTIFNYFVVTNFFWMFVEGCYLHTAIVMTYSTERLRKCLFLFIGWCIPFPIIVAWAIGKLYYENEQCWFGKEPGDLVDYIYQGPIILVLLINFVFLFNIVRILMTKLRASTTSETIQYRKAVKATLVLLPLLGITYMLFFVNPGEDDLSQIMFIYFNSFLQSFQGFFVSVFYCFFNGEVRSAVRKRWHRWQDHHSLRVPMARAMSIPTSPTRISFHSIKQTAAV
Sequence (P24387 whole entry): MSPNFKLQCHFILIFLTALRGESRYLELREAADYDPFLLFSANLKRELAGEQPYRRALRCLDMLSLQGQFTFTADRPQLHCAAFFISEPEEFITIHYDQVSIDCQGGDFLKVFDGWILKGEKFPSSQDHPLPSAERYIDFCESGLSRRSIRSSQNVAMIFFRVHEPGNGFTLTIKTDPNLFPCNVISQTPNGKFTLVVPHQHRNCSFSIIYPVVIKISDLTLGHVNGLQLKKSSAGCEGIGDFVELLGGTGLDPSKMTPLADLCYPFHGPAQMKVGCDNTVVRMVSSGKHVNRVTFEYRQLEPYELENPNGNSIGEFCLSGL
Assay: Dose Response confirmation of uHTS hits for small molecule antagonists of the CRF-binding protein and CRF-R2 receptor complex.
Assay type: functional
Details: read-out: IC50_Mean
The source made the active and inactive calls.
Outcome codes: 1 (yes) for active, 0 (no) for inactive

> print(dat)
                                    compound  category.label
 1  COc1ccc(CCNC(=O)COc2ccc(N(C)S(=O)(=O)c3ccc(C)cc3)cc2)cc1OC          0 (no)
 2  CC1(C)CC(=O)C2=C(C1)N(Cc1ccco1)C(=O)C2(O)C(F)(F)F (stereo not given)          0 (no)
 3  Cc1cccc(N2CCN(S(=O)(=O)c3ccc(Cl)nc3)CC2C)c1 (stereo not given)          0 (no)
 4  CC12CCC(C(=O)Nc3ncc([N+](=O)[O-])s3)(OC1=O)C2(C)C (stereo not given)          0 (no)
 5  Cc1ccc2nc(N3C(=O)C(O)=C(C(=O)c4ccco4)C3c3cccc(O)c3)sc2c1 (stereo not given)         1 (yes)
 6  COc1ccc2sc(-c3ccc(S(C)(=O)=O)cc3)c(C(=O)NCCc3c[nH]c4ccccc34)c2c1          0 (no)
 7  CCN(CC)S(=O)(=O)c1cccc(C(=O)Nc2ccc3c(c2)OCO3)c1          0 (no)
 8  CC(C)(C)c1cc(C(=O)NNC(=O)Nc2cccc(Cl)c2)n(Cc2ccccc2)n1         1 (yes)
 9  O=C(NNC(=O)c1cccc(S(=O)(=O)N2CCCCC2)c1)c1ccccc1          0 (no)
10  CC(=O)C1(O)CCC2C3CC(C)C4=CC(=O)C=CC4(C)C3(F)C(O)CC21C (stereo not given)          0 (no)
